Sourced from patent US20070098681A1

Target: T1, DcR2-IgG (UniProt Q9UBN6 56-211, limits assumed)
T1 construct: not shown: IgG portion, not described
T1 sequence (looked up): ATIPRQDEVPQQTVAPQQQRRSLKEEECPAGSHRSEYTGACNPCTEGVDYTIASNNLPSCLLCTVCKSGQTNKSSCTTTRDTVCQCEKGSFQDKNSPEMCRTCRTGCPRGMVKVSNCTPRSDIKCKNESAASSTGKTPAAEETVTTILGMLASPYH
Experiment: AlphaQuest displacement of biotinylated Apo2L/TRAIL from receptor-IgG; ratio to Flag-Apo2L.WT
READOUT_KIND: IC50 ratio (mutant/wt)

BINDER	MEAS_VALUE
Flag-Apo2L.DR5-2 (ligand) VRERGPQRVAAHITGTRGRSNTLSSPNSKNEKALGRKINSWESSRSGHSFLSNLHLRNGELVIHEKGFYYIYSQTAFKFKEEIKENTKNDKQMVQYIYKYTSYPDPILLMKSARNSCWSKDAEYGLYSIYQGGIFELKENDRIFVSVTNEHLIDMDHEASFFGAFLVG	5 ratio (mutant/wt)
Flag-Apo2L.DR4-8 (ligand) VRERGPQRVAAHITGTRGRSNTLSSPNSKNEKALGRKINSWESSRSGHSFLSNLHLRNGELVIHEKGFYYIYSQTAFRFSEEIKEVTRNDKQMVQYIYKWTDYPDPILLMKSARNSCWSKDAEYGLYSIYQGGIFELKENDRIFVSVTNEHLIDMDHEASFFGAFLVG	15 ratio (mutant/wt)
Flag-Apo2L.DR5-1 (ligand) VRERGPQRVAAHITGTRGRSNTLSSPNSKNEKALGRKINSWESSRSGHSFLSNLHLRNGELVIHEKGFYYIYSQTAFKFKEEIKENTKNDKQMVQYIYKYTSYPDPILLMKSARNSCWSKDAEYGLYSIYQGGIFELKENDRIFVSVTNEALIDMDHEASFFGAFLVG	32 ratio (mutant/wt)
Flag-Apo2L.DR5-21 (ligand) VRERGPQRVAAHITGTRGRSNTLSSPNSKNEKALGRKINSWESSRSGHSFLSNLHLRNGELVIHEKGFYYIYSQTAFKFKEEIKENTKNDKQMVQYIYKYTSYPDPILLMKSARNSCWSKDAEYGLYSIYQGGIFELKENDRIFVSVTNEDLLNMEHEASFFGAFLVG	9.4 ratio (mutant/wt)
Flag-Apo2L.DR4-9 (ligand) VRERGPQRVAAHITGTRGRSNTLSSPNSKNEKALGRKINSWESSRSGHSFLSNLHLRNGELVIHEKGFYYIYSQTAFRFSEEIKERTRNDKQMVQYIYKWTDYPDPILLMKSARNSCWSKDAEYGLYSIYQGGIFELKENDRIFVSVTNEHLIDMDHEASFFGAFLVG	18 ratio (mutant/wt)
